- Test target: human recombinant FAAH (Homo sapiens)
- Sequence (O00519 whole entry): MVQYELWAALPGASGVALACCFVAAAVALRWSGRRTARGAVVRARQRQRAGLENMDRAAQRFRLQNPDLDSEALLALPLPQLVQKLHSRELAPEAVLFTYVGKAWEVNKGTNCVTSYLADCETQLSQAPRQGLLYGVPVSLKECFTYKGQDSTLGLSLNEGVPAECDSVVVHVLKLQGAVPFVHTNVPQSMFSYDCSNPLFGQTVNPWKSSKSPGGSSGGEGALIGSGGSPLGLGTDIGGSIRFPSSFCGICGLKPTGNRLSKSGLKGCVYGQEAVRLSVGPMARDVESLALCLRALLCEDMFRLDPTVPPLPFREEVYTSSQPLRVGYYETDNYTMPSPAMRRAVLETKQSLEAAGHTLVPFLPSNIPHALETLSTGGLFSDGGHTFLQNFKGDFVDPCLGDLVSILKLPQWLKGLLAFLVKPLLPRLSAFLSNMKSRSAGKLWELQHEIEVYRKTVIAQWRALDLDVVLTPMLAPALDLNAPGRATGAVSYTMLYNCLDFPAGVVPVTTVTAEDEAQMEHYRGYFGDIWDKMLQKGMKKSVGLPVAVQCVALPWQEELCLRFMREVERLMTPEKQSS
- Assay protocol: FAAH inhibition enzymatic assay, fluorescent substrate Arachidonoyl-AMC, 30 minute incubation
- Assay context: T = 30 min (30 minute incubation); geometric mean of 2-4 determinations unless otherwise indicated
Please go through the items and note down their IC50.

Dear colleague, could you send me IC50 for each of the items below? Thanks.
1. CN(C1COC2(CCN(C(=O)O[C@H](CO)C(F)(F)F)CC2)C1)S(=O)(=O)c1ccc(F)cc1 (single isomer, unassigned) [Example 111]
2. N#Cc1cccc(C2COC3(CCN(C(=O)O[C@H](CO)C(F)(F)F)CC3)C2)c1 (mixture of isomers)
3. CN(C(=O)c1ccccc1)C1COC2(CCN(C(=O)O[C@H](CO)C(F)(F)F)CC2)C1 (single isomer, unassigned) [Example 99]

Found:
1: > 30 µM; 2: > 26.4 µM; 3: > 30 µM
